assay: modulators of MEP2-GFP levels in yeast, confirmation, S. cerevisiae, flow cytometry GFP, cherry picks (AID 2272);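 note: ratio of well signal to plate DMSO mean so 100% equals DMSO level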; settings: S. cerevisiae MEP2-GFP strain, 3 h, at 10 µM, active compounds read high
measurement name: GFP response vs DMSO (%)
One number for each entry, in %.

Use the examples below as a reference point.
- COc1ccccc1OC(C)C(=O)Nc1ccccc1C(=O)NCC1CCCO1 (stereo unspecified): 99.5
- Cc1ccc(C(=O)O)cc1N1C(=O)c2cccc3cc(Br)cc(c23)C1=O: 103
- CCOC(=O)c1sc(NC(=O)c2ccco2)nc1-c1ccccc1: 103
- COC(=O)NC1CCC(CC2CCC(NC(=O)OC)CC2)CC1 (stereo unspecified): 100
- CN(C)CCCNc1cc(C(C)(C)C)nc2c(-c3ccc(Cl)cc3)cnn12: 114
- CC(OC(=O)c1cccs1)C(=O)Nc1nc(-c2ccccc2)cs1 (stereo unspecified): 99.5

Please state GFP response vs DMSO for every compound in the list that follows.
1. Cc1ccc(N2C(=O)C3C4C=CC(CNC(=S)N5CCN(c6ccccn6)CC5)(O4)C3C2=O)cc1 (stereo unspecified)
2. COc1cccc(C(=O)Nc2ccc(C)cc2)c1
3. COC(=O)Cn1nc(-c2ccccc2)c2ccccc21
4. O=C(/C=C/Sc1ncn[nH]1)c1ccc(Cl)cc1
5. CS(=O)(=O)N1CCc2cc(C(=O)Nc3ccc(COCC(F)(F)F)cc3)ccc21

[106, 102, 109, 114, 100]

====

assay: RPL19A-GFP modulators, yeast TOR pathway, confirmation, cell-based, S. cerevisiae, flow cytometry, cherry picks, mother/daughter gates (AID 2270); conditions: S. cerevisiae RPL19A-GFP strain, 3 h, at 10 µM, active compounds read low, 100 = same GFP as DMSO wells
measurement name: GFP response vs DMSO (%)
Numbers only, in %.

Solved entries (count: 2):
* COc1cc(NC(=O)c2cccc(C)c2)ccc1NC(=O)c1cc2ccccc2o1 | 102
* Cc1ccn2c(NC3CCCCC3)c(-c3cccc(-c4cccc(Cl)c4)c3)nc2c1 | 95

# per-item lookup of GFP response vs DMSO; items listed below
1. Cc1ccc(/C=C2/NC(=O)N(Cc3ccccc3)C2=O)o1
2. CCOc1ccc(CNC(=O)CCC(=O)N2Cc3cccc(OC)c3Oc3ncccc32)cc1
3. COc1ccccc1/C=C/C=N/NC(=O)c1cccs1
4. CCOc1ccccc1NC(=O)c1nc(S(=O)(=O)Cc2ccccc2)ncc1Cl
5. O=C(Nc1nccs1)C1CCCN1S(=O)(=O)c1ccc(F)cc1 (stereo unspecified)
6. COc1ccc(Br)cc1/C=N/NC(=O)Cn1nnnc1N
7. O=C1c2ccccc2C2=Nc3ccccc3SC(c3cccc(F)c3)C12 (stereo unspecified)

1. 98.4
2. 98.2
3. 97.8
4. 97.8
5. 98.8
6. 99.2
7. 102

Fill in GFP response vs DMSO for each of the 2 compounds listed.
1. O=C1C(CSCc2ccccc2)NC(=S)N1c1ccccc1 (stereo unspecified)
2. Cc1cc(O)ccc1NC(=O)c1ccccc1

102
98.4

====

So I've got a bunch of molecules here, and I need their response values.
assay: yeast V-ATPase proton transport modulators, S. cerevisiae, pHLuorin, HTS validation (AID 504600);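 note: plate controls were DMSO for no effect and reference compound for full effect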; conditions: S. cerevisiae pHLuorin cytosolic pH, at 10 µM, active compounds read high
Peptide text beside a SMILES is read from it. * marks the point of attachment. Boc = CC(C)(C)OC(=O)*; OBn = c1ccc(CO*)cc1
Give bare numbers, in %.

- CC(C)(C)NC[C@H](O)COc1nsnc1N1CCOCC1: 4.73
- CC(C)CC(NC(=O)C(NC(=O)OC(C)(C)C)C(C)C)C(=O)NC(CCC(=O)OCc1ccccc1)C(N)=O (stereo not drawn) (Boc-Val-Leu-Glu(OBn)-NH2; configuration not given here): -7.35
- Oc1ccc(Oc2ncc(Cl)cc2Cl)cc1: 8.39
- CCOC(=O)C1(CCCc2ccccc2)CCN(C2CCN(C(C)=O)CC2)CC1: -6.58
- COc1cccc(N2CC(O)=C(c3nc4ccccc4c(=O)[nH]3)C2=N)c1: 8.28
- CC(COc1ccccc1)N(CCCl)Cc1ccccc1 (stereo not given): 2.49
- C[C@]12CCC(=O)C[C@@H]1CC[C@@H]1[C@@H]2CC[C@]2(C)C=CC[C@@H]12: 17
- CN(C)CCCN1c2ccccc2CCc2ccc(Cl)cc21: -7.85

Can you give me response for all of these, one by one?
1. CNC[C@H](O)c1cccc(O)c1
2. COc1cc([C@@H]2c3cc4c(cc3[C@H](O)[C@H]3COC(=O)[C@H]23)OCO4)cc(OC)c1OC

[3.91, 21]

# credit: PubChem BioAssay
